Measured protein stability index, listed per entry.
B1: ZNF24 (parent)
chain: YGETCFPKGRFERKRNPSRKKQHI

Variants of: B1
protocol_notes: protein stability index of a GFP-peptide fusion (GPS, HEK-293T) (PSI 1-6); higher = more stable;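 note: lentivirally expressed fusions sorted by FACS into six bins by GFP to DsRed ratio, PSI derived from sequencing read proportions per bin multiplied by bin number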
measurement_conditions: c terminus: a fixed tail appended
value_kind: protein stability index

{"columns": ["mutation_annotation", "measured_number"],
 "data": [
  ["P17H", 3.04],
  ["F11P", 2.97],
  ["K21T", 2.97],
  ["K14R", 2.8],
  ["P17N", 3],
  ["R10K", 2.71],
  ["K14F", 2.55],
  ["K14E", 3.65],
  ["Q22G", 2.95],
  ["R13W", 1.75],
  ["Q22I", 2.28]
]}
